experiment: Growth inhibition of human SNB75 cells at 10 uM after 48 hrs by SRB assay; type: functional; conditions: SNB-75, 48 h, read-out: GI
Class Y: inhibition of growth at 10 µM at least 30%. Class N: inhibition of growth at 10 µM below 30%.

# input Determine whether this molecule has inhibition of growth at 10 µM no lower than 30%: Fc1ccc(Nc2nccc(Nc3ccc4[nH]ncc4c3)n2)cc1
# output N

---

Each item that follows carries a reported inhibition of growth at 10 µM.
system: A498; test: Growth inhibition of human A498 cells at 10 uM after 48 hrs by SRB assay; format: functional; settings: A498, 48 h, read-out: GI
Hi! Could you send only the number? It should be in %, unit omitted.

Use these answered entries as a reference point.
INSERT INTO assay_data (smiles_code, measured_quantity, units_label, observed_value) VALUES
  ('NS(=O)(=O)c1ccc(Nc2nccc(Nc3ccc4[nH]ncc4c3)n2)cc1', 'inhibition of growth at 10 µM', '%', 32),
  ('COc1cccc(Nc2nccc(Nc3ccc4[nH]ncc4c3)n2)c1', 'inhibition of growth at 10 µM', '%', 87),
  ('Clc1ccc(Nc2nccc(Nc3ccc4[nH]ncc4c3)n2)cc1', 'inhibition of growth at 10 µM', '%', 61),
  ('Fc1ccc(Nc2nccc(Nc3ccc4[nH]ncc4c3)n2)cc1', 'inhibition of growth at 10 µM', '%', 51);

Please examine the following record next.
# input What measured inhibition of growth at 10 µM goes with COc1ccc(Nc2nccc(Nc3ccc4[nH]ncc4c3)n2)cc1 ?
# output 63

---

experiment: Growth inhibition of human SF268 cells at 10 uM after 48 hrs by SRB assay; type: functional; settings: SF-268, 48 h, read-out: GI
Please note: rule met applies when inhibition of growth at 10 µM is 30% or greater, and rule not met applies otherwise.

Below are worked cases with known answers.
INSERT INTO results (smiles_code, discrete_label) VALUES
  ('Fc1ccc(Nc2nccc(Nc3ccc4[nH]ncc4c3)n2)cc1', 'rule not met'),
  ('COc1cccc(Nc2nccc(Nc3ccc4[nH]ncc4c3)n2)c1', 'rule met'),
  ('COc1ccc(Nc2nccc(Nc3ccc4[nH]ncc4c3)n2)cc1', 'rule met'),
  ('Clc1ccc(Nc2nccc(Nc3ccc4[nH]ncc4c3)n2)cc1', 'rule met');

Turning now to a further compound:
# input Could you tell me if the measured inhibition of growth at 10 µM of NS(=O)(=O)c1ccc(Nc2nccc(Nc3ccc4[nH]ncc4c3)n2)cc1 reaches 30% or more?
# output rule not met

---

assay: Growth inhibition of human HCT116 cells at 10 uM after 48 hrs by SRB assay; assay type: functional; conditions: HCT-116, 48 h, read-out: GI
Measured quantity: inhibition of growth at 10 µM (%)
Number in %, nothing else.

Some solved cases for reference:
INSERT INTO measurements (smiles_code, measured_quantity, observed_value) VALUES
  ('COc1cccc(Nc2nccc(Nc3ccc4[nH]ncc4c3)n2)c1', 'inhibition of growth at 10 µM', 187),
  ('COc1ccc(Nc2nccc(Nc3ccc4[nH]ncc4c3)n2)cc1', 'inhibition of growth at 10 µM', 81),
  ('Clc1ccc(Nc2nccc(Nc3ccc4[nH]ncc4c3)n2)cc1', 'inhibition of growth at 10 µM', 61),
  ('Fc1ccc(Nc2nccc(Nc3ccc4[nH]ncc4c3)n2)cc1', 'inhibition of growth at 10 µM', 45);

# input Quick check: inhibition of growth at 10 µM of NS(=O)(=O)c1ccc(Nc2nccc(Nc3ccc4[nH]ncc4c3)n2)cc1 ?
# output 5

---

Recorded inhibition of growth at 10 µM by entry
tested on: SR; assay: Growth inhibition of human SR cells at 10 uM after 48 hrs by SRB assay; format: functional; conditions: read-out: GI
Please reply with the bare figure in % and do not write the unit itself.

Please review the following examples before continuing.
INSERT INTO measurements (smiles_code, units_label, observed_value) VALUES
  ('NS(=O)(=O)c1ccc(Nc2nccc(Nc3ccc4[nH]ncc4c3)n2)cc1', '%', 34),
  ('COc1ccc(Nc2nccc(Nc3ccc4[nH]ncc4c3)n2)cc1', '%', 96),
  ('COc1cccc(Nc2nccc(Nc3ccc4[nH]ncc4c3)n2)c1', '%', 111),
  ('Fc1ccc(Nc2nccc(Nc3ccc4[nH]ncc4c3)n2)cc1', '%', 62);

# input Look up inhibition of growth at 10 µM for this compound: Clc1ccc(Nc2nccc(Nc3ccc4[nH]ncc4c3)n2)cc1
# output 97

---

Each entry below carries its recorded inhibition of growth at 10 µM.
test system: KM12; experiment: Growth inhibition of human KM12 cells at 10 uM after 48 hrs by SRB assay; format: functional; details: KM12, 48 h, read-out: GI
Only the number, expressed in %, is required.

Before answering, review these 4 worked examples.
INSERT INTO assay_data (smiles_code, assay_target, observed_value) VALUES
  ('Fc1ccc(Nc2nccc(Nc3ccc4[nH]ncc4c3)n2)cc1', 'KM12', 76),
  ('Clc1ccc(Nc2nccc(Nc3ccc4[nH]ncc4c3)n2)cc1', 'KM12', 91),
  ('COc1ccc(Nc2nccc(Nc3ccc4[nH]ncc4c3)n2)cc1', 'KM12', 90),
  ('COc1cccc(Nc2nccc(Nc3ccc4[nH]ncc4c3)n2)c1', 'KM12', 144);

# input Given the compound NS(=O)(=O)c1ccc(Nc2nccc(Nc3ccc4[nH]ncc4c3)n2)cc1 , what is its reported inhibition of growth at 10 µM?
# output 22

---

test system: SK-MEL-2; test: Growth inhibition of human SK-MEL-2 cells at 10 uM after 48 hrs by SRB assay; format: functional; conditions: SK-MEL-2, 48 h, read-out: GI
We begin with a simple list: items and their reported inhibition of growth at 10 µM.
Could you give me the number in %? Just the number is fine.

INSERT INTO measurements (smiles_code, units_label, observed_value) VALUES
  ('COc1ccc(Nc2nccc(Nc3ccc4[nH]ncc4c3)n2)cc1', '%', 70);

# input // fetch SK-MEL-2 inhibition of growth at 10 µM for NS(=O)(=O)c1ccc(Nc2nccc(Nc3ccc4[nH]ncc4c3)n2)cc1
# output 4

# input Recorded inhibition of growth at 10 µM for COc1cccc(Nc2nccc(Nc3ccc4[nH]ncc4c3)n2)c1 with SK-MEL-2, please?
# output 137

# input GET /values?readout=inhibition of growth at 10 µM&system=SK-MEL-2&item= Fc1ccc(Nc2nccc(Nc3ccc4[nH]ncc4c3)n2)cc1
# output 24

---

test system: NCI-H23; assay: Growth inhibition of human NCI-H23 cells at 10 uM after 48 hrs by SRB assay; format: functional; conditions: NCI-H23, 48 h, read-out: GI
Measured quantity: inhibition of growth at 10 µM (%)
The reply should contain only the number, in %.

INSERT INTO results (smiles_code, assay_target, observed_value) VALUES
  ('COc1cccc(Nc2nccc(Nc3ccc4[nH]ncc4c3)n2)c1', 'NCI-H23', 129);

Here is the next item to consider.
# input Which measured inhibition of growth at 10 µM belongs to Clc1ccc(Nc2nccc(Nc3ccc4[nH]ncc4c3)n2)cc1 , tested on NCI-H23?
# output 54

---

assay: Growth inhibition of human OVCAR4 cells at 10 uM after 48 hrs by SRB assay; assay type: functional; conditions: OVCAR-4, 48 h, read-out: GI
Measured quantity: inhibition of growth at 10 µM (%)
Numeric answer only, unit % assumed.

# example entries with known answers
INSERT INTO results (smiles_code, measured_quantity, observed_value) VALUES
  ('Clc1ccc(Nc2nccc(Nc3ccc4[nH]ncc4c3)n2)cc1', 'inhibition of growth at 10 µM', 51),
  ('COc1cccc(Nc2nccc(Nc3ccc4[nH]ncc4c3)n2)c1', 'inhibition of growth at 10 µM', 160);

# input Endpoint output: inhibition of growth at 10 µM of COc1ccc(Nc2nccc(Nc3ccc4[nH]ncc4c3)n2)cc1 . Value?
# output 67

# input Field request: inhibition of growth at 10 µM | item: Fc1ccc(Nc2nccc(Nc3ccc4[nH]ncc4c3)n2)cc1
# output 27

# input I would be grateful if you could share the reported inhibition of growth at 10 µM for NS(=O)(=O)c1ccc(Nc2nccc(Nc3ccc4[nH]ncc4c3)n2)cc1 .
# output -12

---

test system: NCI-H522; test: Growth inhibition of human NCI-H522 cells at 10 uM after 48 hrs by SRB assay; format: functional; details: NCI-H522, 48 h, read-out: GI
Measured quantity: inhibition of growth at 10 µM
Enter the number, and then the unit.

In the examples that follow, each entry is paired with its recorded inhibition of growth at 10 µM.
INSERT INTO assay_data (smiles_code, observed_value) VALUES
  ('COc1ccc(Nc2nccc(Nc3ccc4[nH]ncc4c3)n2)cc1', '81%'),
  ('Fc1ccc(Nc2nccc(Nc3ccc4[nH]ncc4c3)n2)cc1', '57%'),
  ('Clc1ccc(Nc2nccc(Nc3ccc4[nH]ncc4c3)n2)cc1', '79%'),
  ('COc1cccc(Nc2nccc(Nc3ccc4[nH]ncc4c3)n2)c1', '168%');

Turning now to a further record.
# input Name the reported inhibition of growth at 10 µM value associated with the compound NS(=O)(=O)c1ccc(Nc2nccc(Nc3ccc4[nH]ncc4c3)n2)cc1
# output 57%
